Target: recombinant human NK3 receptor (Homo sapiens)
Construct: expressed in transfected cells; host or cells: HEK293 cells, transient expression; membranes
Sequence (P29371 whole entry): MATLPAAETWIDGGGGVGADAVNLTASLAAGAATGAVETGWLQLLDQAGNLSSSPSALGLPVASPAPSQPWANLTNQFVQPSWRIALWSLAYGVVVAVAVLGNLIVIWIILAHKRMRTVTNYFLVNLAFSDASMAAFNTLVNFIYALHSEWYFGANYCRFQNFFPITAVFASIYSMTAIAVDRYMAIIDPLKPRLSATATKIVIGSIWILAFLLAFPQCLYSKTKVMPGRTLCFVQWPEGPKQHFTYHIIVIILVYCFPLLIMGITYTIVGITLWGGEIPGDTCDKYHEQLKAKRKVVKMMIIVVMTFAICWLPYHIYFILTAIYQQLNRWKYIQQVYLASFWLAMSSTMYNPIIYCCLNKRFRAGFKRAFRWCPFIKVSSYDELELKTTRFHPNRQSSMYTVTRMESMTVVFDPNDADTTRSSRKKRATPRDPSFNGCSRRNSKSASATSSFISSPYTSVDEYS
Assay: [3H]SR142801 competition binding assay
pKi: recorded values
Just so you know, pKi here is -log10 of the concentration in molar units; reply with that number alone.

Examples with their reported pKi follow.
COMPOUND: CN(C(=O)Oc1ccc(F)cc1)[C@@H]1CN(C(=O)C2CCN(C(=O)C3CCOCC3)CC2)C[C@H]1c1ccc(Cl)cc1 [Example 257]
pKi: 8.66
//
COMPOUND: CN(C(=O)Oc1ccc(F)cc1)[C@H]1CN(C(=O)N2CCOCC2)C[C@@H]1c1ccc(Cl)c(Cl)c1 (racemic) [Example 48]
pKi: 7.53
//
COMPOUND: CN(C(=O)Oc1ccc(F)cc1)[C@@H]1CN(C(=O)C2CCN(C3CCOCC3)C2)C[C@H]1c1ccc(Cl)cc1 (stereo partly drawn) [Example 179]
pKi: 7.25
//
COMPOUND: COc1ccc(N2CCC(C(=O)N3C[C@@H](N(C)C(=O)Oc4ccc(F)cc4)[C@H](c4ccc(Cl)cc4)C3)CC2)nn1 [Example 197]
pKi: 8.59
//
COMPOUND: COc1ccc(OC(=O)N(C)[C@@H]2CN(C(=O)C3CCN(c4ccc(C#N)cn4)CC3)C[C@H]2c2ccc(Cl)cc2)cc1 [Example 201]
pKi: 8.48

// next item, pKi requested
(Q) For the compound CC(=O)N1CCC(C(=O)N2C[C@H](c3ccc(Cl)c(Cl)c3)[C@@H](N(C)C(=O)Oc3ccc(F)cc3)C2)CC1 (racemic) [Example 65] , what pKi is on record?
(A) 9.15
